- System: CP315
- Assay Notes: qHTS profiling for inhibitors of Plasmodium falciparum proliferation (AID 504749); further: nearly all actives have a fitted effect of over 60% in size
- Condition Set: P. falciparum in erythrocytes, SYBR Green DNA, 72 h; series mostly up to 28.7 µM
Records with an inconclusive call do not appear. The source made the active and inactive calls. The call rests on the fitted dose curve; in most records, active means well fitted inhibition curve with a large enough effect; inconclusive means small, poorly fitted or top-dose-only effect; inactive means flat fitted curve, though single readings scatter.
Labels: YES for active, NO for inactive

INSERT INTO assay_data (molecule, class_name) VALUES
  ('CC[N+](C)(C)c1cccc(O)c1', 'NO'),
  ('COCC(=O)O[C@]1(CCN(C)CCCc2nc3ccccc3[nH]2)CCc2cc(F)ccc2[C@@H]1C(C)C', 'YES'),
  ('NCCCNCCSP(=O)(O)O', 'NO'),
  ('CCCCOCCOCCOCc1cc2c(cc1CCC)OCO2', 'NO'),
  ('CNC1(C)C2CCC(C2)C1(C)C (stereo unspecified)', 'NO'),
  ('NS(=O)(=O)c1cc2c(cc1Cl)NC(C1CC3C=CC1C3)NS2(=O)=O (stereo unspecified)', 'NO');

----------
- Tested On: Thyrotropin-releasing hormone receptor (Homo sapiens)
- Assay Notes: qHTS for Small Molecule Agonists and Allosteric Enhancers of Human TRH Receptor: Validation Screen for Agonists (AID 493127);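 further: intracellular calcium rise by fluo-8 fluorescence before TRH EC20 addition; 0% is about no effect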
- Condition Set: TRH receptor agonist cell assay; at 2 µM; hits give high values
- Method: NIH Chemical Genomics Center [NCGC] NIH Molecular Libraries Probe Centers Network [MLPCN] Assay Submitter (PI): Marvin Gershengorn […] For the HTS assay freshly prepared cells are plated at a density of 2000/well in 3 ul of complete DMEM medium containing 10% serum in 1536-well plates and cultured over night at 37 C in a humidified incubator with 5% CO2. […] For the assay, assay plates were loaded into the FDSS kinetic plate reader. […]
Listing: activation of selected molecules
Experimental Readout: activation (%)

INSERT INTO assay_data (molecule, tested_on, observed) VALUES
  ('CNC1(C)C2CCC(C2)C1(C)C (stereo unspecified)', 'Thyrotropin-releasing hormone receptor (Homo sapiens)', 0.375),
  ('CCOC(=O)C1=C(C)NC(C)=C(C(=O)OC)C1c1cccc(Cl)c1Cl (stereo unspecified)', 'Thyrotropin-releasing hormone receptor (Homo sapiens)', 1.12),
  ('CCN(CC)CC(=O)Nc1c(C)cccc1C', 'Thyrotropin-releasing hormone receptor (Homo sapiens)', 1.5),
  ('CCCN(CCC)C(=O)C(CCC(=O)O)NC(=O)c1ccccc1 (stereo unspecified)', 'Thyrotropin-releasing hormone receptor (Homo sapiens)', 1.56),
  ('COc1cc2c(cc1OC)-c1cc(=Nc3c(C)cc(C)cc3C)n(C)c(=O)n1CC2', 'Thyrotropin-releasing hormone receptor (Homo sapiens)', -6.75),
  ('Cc1nc2c([nH]1)c(=O)n(C)c(=O)n2Cc1ccco1', 'Thyrotropin-releasing hormone receptor (Homo sapiens)', 0.812),
  ('CC(N=C(NC#N)Nc1ccncc1)C(C)(C)C (stereo unspecified)', 'Thyrotropin-releasing hormone receptor (Homo sapiens)', 0.125),
  ('COc1ccc(CCN(C)CCCC(C#N)(c2cc(OC)c(OC)c(OC)c2)C(C)C)cc1OC (stereo unspecified)', 'Thyrotropin-releasing hormone receptor (Homo sapiens)', 3),
  ('O=c1[nH]c(=O)n([C@H]2C[C@H](O)[C@@H](CO)O2)cc1Br', 'Thyrotropin-releasing hormone receptor (Homo sapiens)', 1),
  ('COC(=O)C1=C(C)NC(C)=C(C(=O)OCCN(C)Cc2ccccc2)C1c1cccc([N+](=O)[O-])c1 (stereo unspecified)', 'Thyrotropin-releasing hormone receptor (Homo sapiens)', -4.56),
  ('c1cnc(N2CCN(Cc3ccc4c(c3)OCO4)CC2)nc1', 'Thyrotropin-releasing hormone receptor (Homo sapiens)', -3.31);

----------
- System: TAB109
- Assay Notes: qHTS profiling for inhibitors of Plasmodium falciparum proliferation (AID 504749); further: nearly all actives have a fitted effect of over 60% in size
- Condition Set: P. falciparum in erythrocytes, SYBR Green DNA, 72 h; series mostly up to 28.7 µM
- Protocol: NIH National Institute of Allergy and Infectious Diseases [NIAID] NIH Chemical Genomics Center [NCGC] […] Because mature erythrocytes lack DNA, only Plasmodium-derived DNA is detected. NCGC Assay Protocol Summary: The SYBR Green viability assay was adapted from a method described previously (Plouffe et al., 2008). […] The following morning, fluorescence intensity at 485(14) nm excitation and 535(25) nm emission wavelengths was measured on an EnVision (Perkin Elmer) plate reader. […]
Results filed as inconclusive are left out. Calls of active or inactive are those of the source. Calls come from the whole dose curve; as a rule, active = well fitted inhibition curve with a large enough effect; inconclusive = small, poorly fitted or top-dose-only effect; inactive = flat fitted curve, though single readings scatter.
Classes used: active, inactive

INSERT INTO assay_data (compound, tested_on, class_name) VALUES
  ('C[N+](C)(C)CCOC(=O)CCC(=O)OCC[N+](C)(C)C', 'TAB109', 'inactive'),
  ('C[C@H](CS)C(=O)N1CCC[C@H]1C(=O)O', 'TAB109', 'inactive'),
  ('C[N+](C)(C)CCOC(N)=O', 'TAB109', 'inactive'),
  ('NCCCNCCSP(=O)(O)O', 'TAB109', 'inactive'),
  ('Nc1ncn([C@@H]2O[C@H](CO)[C@@H](O)[C@H]2O)c(=O)n1', 'TAB109', 'inactive'),
  ('OCCN1CCN(CCCN2c3ccccc3C=Cc3ccccc32)CC1', 'TAB109', 'active'),
  ('COCC(=O)O[C@]1(CCN(C)CCCc2nc3ccccc3[nH]2)CCc2cc(F)ccc2[C@@H]1C(C)C', 'TAB109', 'active'),
  ('CC(C)COCC(CN(Cc1ccccc1)c1ccccc1)N1CCCC1 (configuration not stated)', 'TAB109', 'inactive'),
  ('O=C(CCNNC(=O)c1ccncc1)NCc1ccccc1', 'TAB109', 'inactive'),
  ('CN1CCN(C2=Nc3ccccc3Oc3ccc(Cl)cc32)CC1', 'TAB109', 'inactive'),
  ('CCCN(CCC)CCc1cccc2c1CC(=O)N2', 'TAB109', 'inactive'),
  ('Cc1ccc(S(=O)(=O)NC(=O)NN2CCCCCC2)cc1', 'TAB109', 'inactive'),
  ('Cc1scc2c1N(C(=O)CN1CCN(C)CC1)c1ccccc1NC2=O', 'TAB109', 'inactive'),
  ('CCN1CCC[C@H]1CNC(=O)c1c(O)c(Cl)cc(Cl)c1OC', 'TAB109', 'inactive'),
  ('O=c1[nH]c(=O)n([C@H]2C[C@H](O)[C@@H](CO)O2)cc1Br', 'TAB109', 'inactive'),
  ('NC/C=C/C(=O)O', 'TAB109', 'inactive'),
  ('CCN(CC)CCOCCOC(=O)C1(c2ccccc2)CCCC1', 'TAB109', 'active'),
  ('Nc1nc(N)c2nc(-c3ccccc3)c(N)nc2n1', 'TAB109', 'inactive'),
  ('CCCN1C[C@H](CSC)C[C@@H]2c3cccc4[nH]cc(c34)C[C@H]21', 'TAB109', 'active'),
  ('CCCCCN(CCCCC)C(=O)C(CCC(=O)O)NC(=O)c1ccc(Cl)c(Cl)c1 (configuration not stated)', 'TAB109', 'inactive'),
  ('NC(Cc1ccc(Cl)cc1)C(=O)O (configuration not stated)', 'TAB109', 'inactive'),
  ('O=C(O)CCCCCCCC(=O)O', 'TAB109', 'inactive'),
  ('CCN(CC)CCCN(c1ccccc1)C1Cc2ccccc2C1', 'TAB109', 'active'),
  ('O=C1CC2(CCCC2)CC(=O)N1CCCCN1CCN(c2ncccn2)CC1', 'TAB109', 'inactive'),
  ('O=C(O)CP(=O)(O)O', 'TAB109', 'inactive'),
  ('COC(=O)[C@@H](N)Cc1ccc(O)c(O)c1', 'TAB109', 'inactive'),
  ('NC(=O)c1cn(Cc2c(F)cccc2F)nn1', 'TAB109', 'inactive'),
  ('NS(=O)(=O)c1cc2c(cc1Cl)NC(C1CC3C=CC1C3)NS2(=O)=O (configuration not stated)', 'TAB109', 'inactive'),
  ('COc1cc2c(cc1OC)-c1cc(=Nc3c(C)cc(C)cc3C)n(C)c(=O)n1CC2', 'TAB109', 'active'),
  ('COC(=O)[C@H]1[C@H]2C[C@@H]3c4[nH]c5cc(OC)ccc5c4CCN3C[C@H]2C[C@@H](OC(=O)c2cc(OC)c(OC)c(OC)c2)[C@@H]1OC', 'TAB109', 'active'),
  ('O=C(O)CN(CCOCCOCCN(CC(=O)O)CC(=O)O)CC(=O)O', 'TAB109', 'inactive'),
  ('CN1CCN(CC(=O)N2c3ccccc3C(=O)Nc3cccnc32)CC1', 'TAB109', 'inactive');

----------
- Assay Notes: qHTS profiling for inhibitors of Plasmodium falciparum proliferation (AID 504749); further: nearly all actives have a fitted effect of over 60% in size;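 on activity, negative = inhibition: 0% = DMSO vehicle and full inhibition = artemisinin control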
- Condition Set: P. falciparum in erythrocytes, SYBR Green DNA, 72 h; at 28.7 µM (top of the series); parasite line A
- Protocol: NIH National Institute of Allergy and Infectious Diseases [NIAID] NIH Chemical Genomics Center [NCGC] […] Because mature erythrocytes lack DNA, only Plasmodium-derived DNA is detected. NCGC Assay Protocol Summary: The SYBR Green viability assay was adapted from a method described previously (Plouffe et al., 2008). […] The following morning, fluorescence intensity at 485(14) nm excitation and 535(25) nm emission wavelengths was measured on an EnVision (Perkin Elmer) plate reader. […]
Results filed as inconclusive are left out.
Experimental Readout: activity, negative = inhibition (%)

INSERT INTO measurements (molecule, observed) VALUES
  ('CN(C(=O)CCCOc1ccc2[nH]c(=O)ccc2c1)C1CCCCC1', -9.28),
  ('CCn1cc(C(=O)O)c(=O)c2cc3c(cc21)OCO3', -8.68),
  ('FC(F)(F)c1ccccc1-n1ccnc1', 11.5),
  ('Cc1ccc(S(=O)(=O)NC(=O)NN2CCCCCC2)cc1', -5.36),
  ('CN(C)CC/C=C1\c2ccccc2COc2ccccc21', 0.213),
  ('CSc1ccc(C(=O)c2[nH]c(=O)[nH]c2C)cc1', 9.87),
  ('CCCCOCCOCCOCc1cc2c(cc1CCC)OCO2', 4.14),
  ('CNC1(C)C2CCC(C2)C1(C)C (stereo unspecified)', 6.34),
  ('CCN(Cc1ccncc1)C(=O)C(CO)c1ccccc1 (stereo unspecified)', 3.05),
  ('CC(=O)[C@@]1(O)CC[C@H]2[C@@H]3CCC4=CC(=O)CC[C@]4(C)[C@H]3CC[C@@]21C', -9.44),
  ('OC(CCN1CCCCC1)(c1ccccc1)C1CCCCC1 (stereo unspecified)', -22),
  ('Cc1ccc(=O)n(-c2ccccc2)c1', 12.4),
  ('C[n+]1cc2c3c(ccc2c2ccc4cc5c(cc4c21)OCO5)OCO3', -18.2),
  ('CC(=O)Nc1nnc(S(N)(=O)=O)s1', -9.91),
  ('Cc1nc2ccccn2c(=O)c1CCN1CCC(C(=O)c2ccc(F)cc2)CC1', -18.1),
  ('CC(C(=O)O)c1ccc(CC2CCCC2=O)cc1 (stereo unspecified)', 0.257),
  ('CCc1cccc(N(C)C(N)=Nc2cccc3ccccc23)c1', -26.1),
  ('CN(C)C(=O)Oc1ccc[n+](C)c1', 4.28),
  ('CCCCCN(CCCCC)C(=O)C(CCC(=O)O)NC(=O)c1ccc(Cl)c(Cl)c1 (stereo unspecified)', 16.8),
  ('NC1=NCC2c3ccccc3Cc3ccccc3N12 (stereo unspecified)', -23),
  ('O=C(O)CN(CCOCCOCCN(CC(=O)O)CC(=O)O)CC(=O)O', 8.03),
  ('O=C(CCNNC(=O)c1ccncc1)NCc1ccccc1', 13.9),
  ('Nc1c2c(nc3ccccc13)CCCC2O (stereo unspecified)', -3.4),
  ('O=C1CC2(CCCC2)CC(=O)N1CCCCN1CCN(c2ncccn2)CC1', 11.6),
  ('C#CCN(C)CCCOc1ccc(Cl)cc1Cl', 6.5),
  ('NC(=O)N1c2ccccc2C=Cc2ccccc21', -22.9);
